# Test system: SARS-CoV-2 (USA-WA1/2020) in Calu-3 cells
# Format: cell-based
# Condition context: low dose (100 nM), Calu-3, 48 h
This section presents compounds with their documented dsRNA signal, AU Low values.
Your answer should be a number followed by the unit of measure.

1. C[C@@H]1CCN(C(=O)CC#N)C[C@@H]1N(C)c1ncnc2[nH]ccc12.O=C(O)CC(O)(CC(=O)O)C(=O)O [Tofacitinib (CP-690550) Citrate] :: 61115.5 AU
2. Cn1cc(-c2[nH]c3cc(NC(=O)[C@H](N)C4CCCCC4)cc4c3c2C=NNC4=O)cn1 :: 24364.8 AU
3. C[C@@H]1COCCN1c1cc(C2([S@](C)(=N)=O)CC2)nc(-c2cc[nH]c3nccc2-3)n1 :: 16844.7 AU
4. COc1cc2c(Oc3ccc4[nH]c(C)cc4c3F)ncnc2cc1OCCCN1CCCC1 :: 15765.2 AU

Item C[C@@H]1CC[C@@]2(OC1)O[C@H]1C[C@H]3[C@@H]4CC=C5C[C@@H](O)CC[C@]5(C)[C@H]4CC[C@]3(C)[C@H]1[C@@H]2C with SARS-CoV-2 (USA-WA1/2020) in Calu-3 cells - dsRNA signal, AU Low?
2764.9 AU

Item COc1cc2ncc(-c3ccccc3)nc2cc1OC with SARS-CoV-2 (USA-WA1/2020) in Calu-3 cells - dsRNA signal, AU Low?
18881.3 AU

Item CC1(C)OC(=O)C=C[C@]2(C)[C@H]3CC[C@@]4(C)[C@H](c5ccoc5)OC(=O)[C@H]5O[C@]54[C@]3(C)C(=O)C[C@@H]12 with SARS-CoV-2 (USA-WA1/2020) in Calu-3 cells - dsRNA signal, AU Low?
63087.7 AU

Item CCn1c2ccccc2c2cc(Nc3ccnc(NCCCN4CCOCC4)n3)ccc21 with SARS-CoV-2 (USA-WA1/2020) in Calu-3 cells - dsRNA signal, AU Low?
44568.8 AU

Item Cc1ncc(CO)c(CO)c1O with SARS-CoV-2 (USA-WA1/2020) in Calu-3 cells - dsRNA signal, AU Low?
29400.2 AU

Item CC(=O)c1c(O)c(C)c(O)c2c1OC1=CC(=O)C(C(C)=O)C(=O)C12C (single isomer, unassigned; (+)) [(+)-Usniacin] with SARS-CoV-2 (USA-WA1/2020) in Calu-3 cells - dsRNA signal, AU Low?
59009.6 AU

Item O=C(O)c1cc(=O)c2c(OCC(O)COc3cccc4oc(C(=O)O)cc(=O)c34)cccc2o1 [Cromolyn sodium] with SARS-CoV-2 (USA-WA1/2020) in Calu-3 cells - dsRNA signal, AU Low?
17957.1 AU

Item CN1CCN(S(=O)(=O)c2ccc(-c3cnc(N)c(C(=O)Nc4cccnc4)n3)cc2)CC1 with SARS-CoV-2 (USA-WA1/2020) in Calu-3 cells - dsRNA signal, AU Low?
6684.6 AU

Item COCc1c(-c2ccc(NC(=O)Nc3cc(C(F)(F)F)ccc3F)c(F)c2)c2c(N)ncnn2c1CN1CCOCC1 with SARS-CoV-2 (USA-WA1/2020) in Calu-3 cells - dsRNA signal, AU Low?
9584.0 AU

Item NC(=O)c1ccc(-c2nc(-c3ccc4c(c3)OCO4)c(-c3ccccn3)[nH]2)cc1 with SARS-CoV-2 (USA-WA1/2020) in Calu-3 cells - dsRNA signal, AU Low?
12958.4 AU

Item Cc1ccc(-c2c(C(=O)CF)n(CCCO)c3ncnc(N)c23)cc1 with SARS-CoV-2 (USA-WA1/2020) in Calu-3 cells - dsRNA signal, AU Low?
14082.6 AU

Item O=C(COc1ccc(Cl)cc1)NC1CCC(NC(=O)COc2ccc(Cl)cc2)CC1 (single isomer, unassigned) [ISRIB (trans-isomer)] with SARS-CoV-2 (USA-WA1/2020) in Calu-3 cells - dsRNA signal, AU Low?
60689.2 AU

Item Nc1ncnc2n[nH]c(Nc3ccc(F)cc3)c12 with SARS-CoV-2 (USA-WA1/2020) in Calu-3 cells - dsRNA signal, AU Low?
33084.2 AU

Item CCN(CC)CCCC(C)Nc1nc(C)cc(Nc2ccc3nc(C)cc(N)c3c2)n1 (centres unmarked) with SARS-CoV-2 (USA-WA1/2020) in Calu-3 cells - dsRNA signal, AU Low?
15408.3 AU

Item Oc1cc(O)cc(/C=C/c2ccc(O)c(O)c2)c1 with SARS-CoV-2 (USA-WA1/2020) in Calu-3 cells - dsRNA signal, AU Low?
48262.2 AU

Item Oc1ccc(-c2nc(-c3ccc(F)cc3)c(-c3ccncc3)[nH]2)cc1 with SARS-CoV-2 (USA-WA1/2020) in Calu-3 cells - dsRNA signal, AU Low?
9508.1 AU

Item CC(C)(C)c1cc(NC(=O)Nc2ccc(-c3cn4c(n3)sc3cc(OCCN5CCOCC5)ccc34)cc2)no1 with SARS-CoV-2 (USA-WA1/2020) in Calu-3 cells - dsRNA signal, AU Low?
17036.5 AU

Item CCN1CCN(c2ccc(Nc3cc(N(C)C(=O)Nc4c(Cl)c(OC)cc(OC)c4Cl)ncn3)cc2)CC1 with SARS-CoV-2 (USA-WA1/2020) in Calu-3 cells - dsRNA signal, AU Low?
22673.4 AU

Item N#Cc1c(NC(=O)c2cccc3ccccc23)sc2c1CCCC2 with SARS-CoV-2 (USA-WA1/2020) in Calu-3 cells - dsRNA signal, AU Low?
17159.4 AU

Item OCCn1cc(-c2cnc3nnn(Cc4ccc5ncccc5c4)c3n2)cn1 with SARS-CoV-2 (USA-WA1/2020) in Calu-3 cells - dsRNA signal, AU Low?
2049.9 AU

Item CC(=O)Nc1cccc(-n2c(=O)n(C3CC3)c(=O)c3c(Nc4ccc(I)cc4F)n(C)c(=O)c(C)c32)c1 with SARS-CoV-2 (USA-WA1/2020) in Calu-3 cells - dsRNA signal, AU Low?
10541.3 AU

Item COc1cc2nccc(Oc3ccc(NC(=O)NC4CC4)c(Cl)c3)c2cc1C(N)=O [Lenvatinib (E7080)] with SARS-CoV-2 (USA-WA1/2020) in Calu-3 cells - dsRNA signal, AU Low?
55504.0 AU

Item Oc1ccc(Nc2nc(-c3ccc(Cl)cc3)cs2)cc1 with SARS-CoV-2 (USA-WA1/2020) in Calu-3 cells - dsRNA signal, AU Low?
21341.0 AU

Reference source: paper PMC12142043
